Values compiled from paper PMC10663500.

- study-target: T1, mouse programmed cell death protein 1 Fc fusion protein (mPD-1-Fc), mPD-1 C60S (aa 25-167) (Mus musculus, UniProt Q02242, stabilised)
- T1 construct: not cleaved; source: Expi293F, purified (Protein A, SEC; dimeric fraction); not shown: Fc (human), C-terminal, kept
- experiment-notes: SPR; Carterra LSA; Fab from the ammonium sulfate precipitate of the culture supernatant immobilised on a NiHC200M chip; hPD-1 (1-1024 nM) or mPD-1-Fc (4-1024 nM) as analyte, fourfold dilution series, no regeneration; HBS-EP pH 7.4, 25 °C; medians over the spots of a construct, KD = koff/kon
- experimental-parameters: one partner purified
observable: kon (M⁻¹ s⁻¹)
Dear colleague, please return just the value in M⁻¹ s⁻¹, with no unit written.

Guide cases for kon, answers given:
[[record]]
binder = "toripalimab Fab L.V30A (Fab, V domains shown, as the heavy chain of Sm3; light chain of Sm3 with this change; numbers count from the chain's first residue; source: Brevibacillus, culture supernatant (ammonium sulfate precipitate); not shown: 6xHis, C-terminal, kept; 6xHN, C-terminal, kept) VH: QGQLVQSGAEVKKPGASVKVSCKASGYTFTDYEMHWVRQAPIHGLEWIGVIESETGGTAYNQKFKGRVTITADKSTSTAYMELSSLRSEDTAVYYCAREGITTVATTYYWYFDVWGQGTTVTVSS VL: DVVMTQSPLSLPVTLGQPASISCRSSQSIAHSNGNTYLEWYLQKPGQSPQLLIYKVSNRFSGVPDRFSGSGSGTDFTLKISRVEAEDVGVYYCFQGSHVPLTFGQGTKLEIK"
observable = "kon"
value_units = "M⁻¹ s⁻¹"
observed_measurement = 37400

[[record]]
binder = "toripalimab Fab L.V99D (Fab, V domains shown, as the heavy chain of Sm3; light chain of Sm3 with this change; numbers count from the chain's first residue; source: Brevibacillus, culture supernatant (ammonium sulfate precipitate); not shown: 6xHis, C-terminal, kept; 6xHN, C-terminal, kept) VH: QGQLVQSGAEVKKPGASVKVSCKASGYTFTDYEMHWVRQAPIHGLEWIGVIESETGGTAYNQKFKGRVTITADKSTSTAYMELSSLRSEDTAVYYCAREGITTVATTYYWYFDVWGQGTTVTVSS VL: DVVMTQSPLSLPVTLGQPASISCRSSQSIVHSNGNTYLEWYLQKPGQSPQLLIYKVSNRFSGVPDRFSGSGSGTDFTLKISRVEAEDVGVYYCFQGSHDPLTFGQGTKLEIK"
observable = "kon"
value_units = "M⁻¹ s⁻¹"
observed_measurement = 38300


Turning to the following binder.
Prompt: What does the data say about its kon? Entry: toripalimab Fab L.V99N (Fab, V domains shown, as the heavy chain of Sm3; light chain of Sm3 with this change; numbers count from the chain's first residue; source: Brevibacillus, culture supernatant (ammonium sulfate precipitate); not shown: 6xHis, C-terminal, kept; 6xHN, C-terminal, kept) VH: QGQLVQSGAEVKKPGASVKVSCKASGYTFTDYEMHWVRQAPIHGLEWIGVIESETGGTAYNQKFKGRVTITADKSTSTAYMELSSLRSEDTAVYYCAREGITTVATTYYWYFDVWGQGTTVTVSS VL: DVVMTQSPLSLPVTLGQPASISCRSSQSIVHSNGNTYLEWYLQKPGQSPQLLIYKVSNRFSGVPDRFSGSGSGTDFTLKISRVEAEDVGVYYCFQGSHNPLTFGQGTKLEIK
Response: 39400
